- System: Plasma
- procedureDetails: Anticoagulant activity in human plasma assessed as concentration required to double activated partial thromboplastin time
- Format: functional
quantity: EC

INSERT INTO results (molecule, quantity, observedmeasurement) VALUES
  ('CCC(=O)Nc1cc(-c2ccc(C(N)=O)cc2C(=O)O)cc([C@@H]2C[C@](C)(c3ccccc3)c3cc(C(=N)N)ccc3N2)c1 (racemic)', 'EC', '3.4 µM'),
  ('CC(C)CC(=O)Nc1cc(-c2ccc(C(N)=O)cc2C(=O)O)cc([C@@H]2C[C@](C)(c3ccccc3)c3cc(C(=N)N)ccc3N2)c1 (racemic)', 'EC', '6.1 µM'),
  ('CC(C)CC(=O)Nc1cc(-c2ccc(C(N)=O)cc2C(=O)O)cc(C2CC(C)(c3ccccc3)c3cc(C(=N)N)ccc3N2)c1 (single isomer, unassigned; enantiomer 2)', 'EC', '2.2 µM'),
  ('C[C@]1(c2ccccc2)C[C@@H](c2cccc(-c3ccc(C(N)=O)cc3C(=O)O)c2)Nc2ccc(C(=N)N)cc21 (racemic)', 'EC', '8.6 µM'),
  ('CCCC(=O)Nc1cc(-c2ccc(C(N)=O)cc2C(=O)O)cc([C@@H]2C[C@](C)(c3ccccc3)c3cc(C(=N)N)ccc3N2)c1 (racemic)', 'EC', '4.1 µM'),
  ('C[C@]1(c2ccccc2)C[C@@H](c2cc(NC(=O)C3CC3)cc(-c3ccc(C(N)=O)cc3C(=O)O)c2)Nc2ccc(C(=N)N)cc21 (racemic)', 'EC', '4.5 µM'),
  ('CC(=O)Nc1cc(-c2ccc(C(N)=O)cc2C(=O)O)cc([C@@H]2C[C@](C)(c3ccccc3)c3cc(C(=N)N)ccc3N2)c1 (racemic)', 'EC', '2.1 µM'),
  ('C[C@]1(c2ccccc2)C[C@@H](c2cc(N)cc(-c3ccc(C(N)=O)cc3C(=O)O)c2)Nc2ccc(C(=N)N)cc21 (racemic)', 'EC', '1.2 µM');

###

Coagulation factor XI (Homo sapiens, UniProt P03951) Ki data
Sequence (P03951 19-387 limits assumed): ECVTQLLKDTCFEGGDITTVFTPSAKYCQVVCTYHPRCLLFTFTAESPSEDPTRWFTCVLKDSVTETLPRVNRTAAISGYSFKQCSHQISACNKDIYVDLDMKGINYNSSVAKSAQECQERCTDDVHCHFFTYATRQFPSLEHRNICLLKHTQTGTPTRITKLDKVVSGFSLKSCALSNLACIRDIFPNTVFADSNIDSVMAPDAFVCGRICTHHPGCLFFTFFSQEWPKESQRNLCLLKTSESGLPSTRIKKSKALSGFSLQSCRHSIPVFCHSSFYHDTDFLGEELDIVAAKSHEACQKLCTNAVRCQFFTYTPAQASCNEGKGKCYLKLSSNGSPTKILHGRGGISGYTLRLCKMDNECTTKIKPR
Sequence (P03951 388-625 limits assumed): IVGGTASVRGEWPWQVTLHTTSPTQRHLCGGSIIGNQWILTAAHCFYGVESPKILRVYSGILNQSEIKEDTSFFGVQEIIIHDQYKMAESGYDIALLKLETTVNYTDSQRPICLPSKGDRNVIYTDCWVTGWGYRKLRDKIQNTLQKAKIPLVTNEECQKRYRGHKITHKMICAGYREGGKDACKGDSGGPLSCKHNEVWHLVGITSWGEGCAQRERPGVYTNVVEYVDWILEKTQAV
quantity: Ki (nM)

INSERT INTO measurements (compound, measuredtarget, quantity, resultunits, observedmeasurement) VALUES
  ('N=C(N)c1ccc2c(c1)[C@@H](c1ccccc1)C[C@@H](c1ccccc1-c1ccc(C(=O)O)cc1C(=O)O)N2 (racemic)', 'Coagulation factor XI (Homo sapiens, UniProt P03951)', 'Ki', 'nM', 8.5),
  ('CNC(=O)Nc1ccc(-c2cccc([C@@H]3C[C@](C)(c4ccccc4)c4cc(C(=N)N)ccc4N3)c2)c(C(=O)O)c1 (racemic)', 'Coagulation factor XI (Homo sapiens, UniProt P03951)', 'Ki', 'nM', 15),
  ('CC(=O)Nc1ccc(-c2cccc([C@@H]3C[C@](C)(c4ccccc4)c4cc(C(=N)N)ccc4N3)c2)c(C(=O)O)c1 (racemic)', 'Coagulation factor XI (Homo sapiens, UniProt P03951)', 'Ki', 'nM', 110),
  ('CC[C@]1(c2ccccc2)C[C@@H](c2cccc(-c3ccc(C(=O)O)cc3C(=O)O)c2)Nc2ccc(C(=N)N)cc21 (racemic)', 'Coagulation factor XI (Homo sapiens, UniProt P03951)', 'Ki', 'nM', 830),
  ('C[C@]1(c2ccccc2)C[C@H](c2cccc(-c3ccc(C(N)=O)cc3C(=O)O)c2)Nc2ccc(C(=N)N)cc21 (racemic)', 'Coagulation factor XI (Homo sapiens, UniProt P03951)', 'Ki', 'nM', 26),
  ('C[C@]1(c2ccccc2)C[C@@H](c2cccc(-c3ccc(C(=O)O)cc3C(=O)O)c2)Nc2ccc(C(=N)N)cc21 (racemic)', 'Coagulation factor XI (Homo sapiens, UniProt P03951)', 'Ki', 'nM', 61),
  ('N=C(N)c1ccc2c(c1)[C@@H](c1ccccc1)C[C@@H](c1ccccc1-c1ccc(C(=O)O)cc1)N2 (racemic)', 'Coagulation factor XI (Homo sapiens, UniProt P03951)', 'Ki', 'nM', 2400),
  ('CNC(=O)c1ccc(-c2cccc([C@@H]3C[C@](C)(c4ccccc4)c4cc(C(=N)N)ccc4N3)c2)c(C(=O)O)c1 (racemic)', 'Coagulation factor XI (Homo sapiens, UniProt P03951)', 'Ki', 'nM', 154),
  ('CC(C)CNC(=O)c1ccc(-c2ccccc2[C@@H]2C[C@H](c3ccccc3)c3cc(C(=N)N)ccc3N2)c(C(=O)O)c1 (racemic)', 'Coagulation factor XI (Homo sapiens, UniProt P03951)', 'Ki', 'nM', 25),
  ('C[C@]1(c2ccccc2)C[C@@H](c2cccc(-c3ccc(C(N)=O)cc3C(=O)O)c2)Nc2ccc(C(=N)N)cc21 (racemic)', 'Coagulation factor XI (Homo sapiens, UniProt P03951)', 'Ki', 'nM', 1.5),
  ('CC(C)(C)NC(=O)c1ccc(-c2cccc([C@@H]3C[C@](C)(c4ccccc4)c4cc(C(=N)N)ccc4N3)c2)c(C(=O)O)c1 (racemic)', 'Coagulation factor XI (Homo sapiens, UniProt P03951)', 'Ki', 'nM', 540),
  ('N=C(N)c1ccc2c(c1)[C@@H](c1ccccc1)C[C@@H](c1ccccc1-c1ccccc1C(=O)O)N2 (racemic)', 'Coagulation factor XI (Homo sapiens, UniProt P03951)', 'Ki', 'nM', 110),
  ('C[C@]1(c2ccccc2)C[C@@H](c2cccc(-c3ccc(NS(C)(=O)=O)cc3C(=O)O)c2)Nc2ccc(C(=N)N)cc21 (racemic)', 'Coagulation factor XI (Homo sapiens, UniProt P03951)', 'Ki', 'nM', 37),
  ('C[C@]1(c2ccccc2)C[C@@H](c2cc(NC(=O)C3CC3)cc(-c3ccc(C(N)=O)cc3C(=O)O)c2)Nc2ccc(C(=N)N)cc21 (racemic)', 'Coagulation factor XI (Homo sapiens, UniProt P03951)', 'Ki', 'nM', 0.72),
  ('CC1(c2ccccc2)CC(c2cccc(-c3ccc(C(N)=O)cc3C(=O)O)c2)Nc2ccc(C(=N)N)cc21 (single isomer, unassigned; enantiomer 2)', 'Coagulation factor XI (Homo sapiens, UniProt P03951)', 'Ki', 'nM', 335),
  ('CC(C)CNC(=O)c1ccc(-c2cccc([C@@H]3C[C@H](c4ccccc4)c4cc(C(=N)N)ccc4N3)c2)c(C(=O)O)c1 (racemic)', 'Coagulation factor XI (Homo sapiens, UniProt P03951)', 'Ki', 'nM', 23),
  ('CCCC(=O)Nc1cc(-c2ccc(C(N)=O)cc2C(=O)O)cc([C@@H]2C[C@](C)(c3ccccc3)c3cc(C(=N)N)ccc3N2)c1 (racemic)', 'Coagulation factor XI (Homo sapiens, UniProt P03951)', 'Ki', 'nM', 0.3),
  ('COC(=O)c1ccc(-c2cccc([C@@H]3C[C@](C)(c4ccccc4)c4cc(C(=N)N)ccc4N3)c2)c(C(=O)O)c1 (racemic)', 'Coagulation factor XI (Homo sapiens, UniProt P03951)', 'Ki', 'nM', 79);
